# experiment_summary: In vivo biodistribution in normal Balb/c mice
# Set-up: species or system mouse
# experimental_setup: female, mouse, blood, iv, total radioactivity; normal Balb/c mice, 45 min p.i., i.v. tail vein, mean ± SD, n = 4-6; read-out: Blood uptake
Where a SMILES comes first, the peptide text is derived from it. [ ]: non-standard residue; d: D form. The star is where a group is joined. DOTA = O=C(O)CN1CCN(CC(=O)O)CCN(CC(=O)*)CCN(CC(=O)O)CC1; βAla = NCCC(=O)O
quantity: tissue uptake at 0.75 h (%ID/g)

CC[C@H](C)[C@H](NC(=O)[C@H](Cc1ccc(O)cc1)NC(=O)[C@@H](NC(=O)[C@H](CCCNC(=N)N)NC(=O)[C@H](CC(=O)O)NC(=O)CCNC(=O)[C@H](CCCCN)NC(=O)CN1CCN(CC(=O)O)CCN(CC(=O)O)CCN(CC(=O)O)CC1)C(C)C)C(=O)N[C@@H](Cc1c[nH]cn1)C(=O)N1CCC[C@H]1C(=O)N[C@@H](Cc1ccccc1)C(=O)N[C@@H](Cc1c[nH]c2ccccc12)C(=O)N[C@@H](CCCCN)C(=O)N[C@@H](Cc1ccc(O)cc1)C(N)=O [^68Ga-DOTA-AngII peptide, metal not drawn] ({DOTA}-K[βAla]DRVYIHPFWKY-NH2) : 0.85

----------
# experiment_summary: In vivo biodistribution in normal Balb/c mice
# Set-up: species or system mouse
# experimental_setup: female, mouse, pancreas, iv, total radioactivity; normal Balb/c mice, 45 min p.i., i.v. tail vein, mean ± SD, n = 4-6; read-out: Pancreas uptake
Where a SMILES comes first, the peptide text is derived from it. [ ]: non-standard residue; d: D form. The star is where a group is joined. DOTA = O=C(O)CN1CCN(CC(=O)O)CCN(CC(=O)*)CCN(CC(=O)O)CC1; βAla = NCCC(=O)O
quantity: tissue uptake at 0.75 h

CC[C@H](C)[C@H](NC(=O)[C@H](Cc1ccc(O)cc1)NC(=O)[C@@H](NC(=O)[C@H](CCCNC(=N)N)NC(=O)[C@H](CC(=O)O)NC(=O)CCNC(=O)[C@H](CCCCN)NC(=O)CN1CCN(CC(=O)O)CCN(CC(=O)O)CCN(CC(=O)O)CC1)C(C)C)C(=O)N[C@@H](Cc1c[nH]cn1)C(=O)N1CCC[C@H]1C(=O)N[C@@H](Cc1ccccc1)C(=O)N[C@@H](Cc1c[nH]c2ccccc12)C(=O)N[C@@H](CCCCN)C(=O)N[C@@H](Cc1ccc(O)cc1)C(N)=O [^68Ga-DOTA-AngII peptide, metal not drawn] ({DOTA}-K[βAla]DRVYIHPFWKY-NH2) : 0.5 %ID/g

----------
# Test system: AT1 receptor
# experiment_summary: In vivo receptor-blocking study in nude mice bearing MDA-MB-231 xenografts
# experimental_setup: mouse, kidneys, intravenous, total radioactivity; nude mice with MDA-MB-231 xenografts, 2 h p.i., co-injected ~100 µg unlabeled AngII peptide analog, mean ± SD; read-out: Kidneys uptake, blocked
Where a SMILES comes first, the peptide text is derived from it. [ ]: non-standard residue; d: D form. The star is where a group is joined. DOTA = O=C(O)CN1CCN(CC(=O)O)CCN(CC(=O)*)CCN(CC(=O)O)CC1; βAla = NCCC(=O)O
quantity: tissue uptake at 2 h (%ID/g)

CC[C@H](C)[C@H](NC(=O)[C@H](Cc1ccc(O)cc1)NC(=O)[C@@H](NC(=O)[C@H](CCCNC(=N)N)NC(=O)[C@H](CC(=O)O)NC(=O)CCNC(=O)[C@H](CCCCN)NC(=O)CN1CCN(CC(=O)O)CCN(CC(=O)O)CCN(CC(=O)O)CC1)C(C)C)C(=O)N[C@@H](Cc1c[nH]cn1)C(=O)N1CCC[C@H]1C(=O)N[C@@H](Cc1ccccc1)C(=O)N[C@@H](Cc1c[nH]c2ccccc12)C(=O)N[C@@H](CCCCN)C(=O)N[C@@H](Cc1ccc(O)cc1)C(N)=O [^68Ga-DOTA-AngII peptide, metal not drawn] ({DOTA}-K[βAla]DRVYIHPFWKY-NH2) : 2.01
